Recorded values, source ChEMBL document CHEMBL4513216.

# ASSAY EXPLANATION: Toxicity liver stage against HepG2, at 10uM
# Format: cell-based
# Parameters: test concentration 10 uM, cell line HepG2-A16-CD81EGFP
# TEST PARAMETERS: human, HepG2-A16-CD81EGFP cells; read-out: INHIBITION
Listed here are molecules together with their documented cytotoxicity at 10 µM.
PROPERTY LABEL: cytotoxicity at 10 µM (%)

>>> numeric_result("OCC1CCCN(c2ncnc3c2Cc2ccccc2OC3)C1 (stereo unspecified)")
1.44
>>> numeric_result("Cc1cccc2c1C(=O)NC1(CCOCC1)N2")
-42.3
>>> numeric_result("Cc1nc(-c2ccsc2)ccc1C(=O)NCCC(=O)N1CCCC1")
-9.57
>>> numeric_result("c1cnc(N2CCO[C@H]3CN(CC4CC4)C[C@H]32)nc1")
5.03
>>> numeric_result("Cc1cnn(CC2CN(c3ncnc4ccccc34)CCO2)c1 (stereo unspecified)")
6.57
>>> numeric_result("CC(C(=O)NCc1ccc(N2CCCC2)nc1)n1cncn1 (stereo unspecified)")
-22.4
